Experiment: Dark toxicity in human Hep2 cells after 24 hrs by Cell Titre Blue assay
Format: cell-based
Details: HEp-2 cells

{"INPUT SMILES": "CC1=C(I)C(C)=[N+]2C1=C(c1c(F)c(F)c(F)c(F)c1F)c1c(C)c(I)c(C)n1[B-]2(F)F", "IC50 at 24 h": "> 400 µM"}
{"INPUT SMILES": "CC1=C(I)C(C)=[N+]2C1=C(c1cccs1)c1c(C)c(I)c(C)n1[B-]2(F)F", "IC50 at 24 h": "> 400 µM"}
{"INPUT SMILES": "CC1=CC(C)=[N+]2C1=C(c1cccs1)c1c(C)cc(C)n1[B-]2(F)F", "IC50 at 24 h": "> 300 µM"}
{"INPUT SMILES": "CC1=C(I)C(C)=[N+]2C1=C(c1ccc(Br)cc1)c1c(C)c(I)c(C)n1[B-]2(F)F", "IC50 at 24 h": "> 400 µM"}
{"INPUT SMILES": "CC1=C(I)C(C)=[N+]2C1=C(c1ccc(-c3ccc(Br)s3)s1)c1c(C)c(I)c(C)n1[B-]2(F)F", "IC50 at 24 h": "8 µM"}
{"INPUT SMILES": "CC1=C(I)C(C)=[N+]2C1=C(c1ccc(-c3cccs3)s1)c1c(C)c(I)c(C)n1[B-]2(F)F", "IC50 at 24 h": "> 400 µM"}
{"INPUT SMILES": "COc1ccc(C2=C3C(C)=C(I)C(C)=[N+]3[B-](F)(F)n3c(C)c(I)c(C)c32)cc1OC", "IC50 at 24 h": "> 400 µM"}
{"INPUT SMILES": "CC1=C(I)C(C)=[N+]2C1=C(c1ccccc1)c1c(C)c(I)c(C)n1[B-]2(F)F", "IC50 at 24 h": "> 400 µM"}
{"INPUT SMILES": "CC1=C(I)C(C)=[N+]2C1=C(c1ccc(Br)s1)c1c(C)c(I)c(C)n1[B-]2(F)F", "IC50 at 24 h": "> 400 µM"}
